# assay_target: Shiga toxin 2 (Escherichia coli O157:H7) (UniProt P09385+P09386)
# test: E. coli 0.157:H7 Shiga Toxin SOP - stx2 screening assay
# Assay type: functional
# Design: scale not given: direction of the effect not stated beside the values
# experimental_parameters: 30 µM
Recorded Percent Effect for the following molecules

molecule | Percent Effect (%)
Cc1ccc(CC2CCCN2CC(=O)NCc2ccccn2)cc1 (configuration not stated) | -4.96
CN(C)CC(=O)N1CCC2(CC1)CN(c1ccsc1)C(=O)CO2 | -4
O=C(NS(=O)(=O)c1cc(Cl)sc1Cl)c1cccc2c1OCCO2 | -6.84
Cc1nc(NC2CCCC2)cc(C2CCN2C(=O)c2cccnc2)n1 (configuration not stated) | 2.33
CCn1cc(Br)c(C(=O)NCc2cnn(C)c2)n1 | -41.5
c1coc(-c2nnc(CN3CCOC(Cn4cccn4)C3)o2)c1 (configuration not stated) | 3.23
O=C(c1ccn(-c2cccc(F)c2)n1)N1CCCC(n2cccn2)C1 (configuration not stated) | 1.81
COc1ccc(-c2nccnc2C2CCN(C(C)=O)CC2)cc1 | 12
O=C(Nc1cccc(CNCc2csc(Br)c2)c1)C1CC1 | -73.7
Cc1ccc(-c2nc(CN3CCn4c(nnc4C4CC4)C3)co2)cc1 | 10.1
Cc1nc(O)cc(C2CCN(Cc3cccc(F)c3F)C2)n1 (configuration not stated) | -17.9
COc1ccc(C2SCC(=O)Nc3ccsc32)cc1 (configuration not stated) | -15.2

---

# assay_target: Aspartate--tRNA(Asp/Asn) ligase (Mycobacterium tuberculosis (strain ATCC 25618 / H37Rv)) (UniProt P9WFW3); further: in the data most compounds retested in dose-response had high values
# Sequence (whole entry): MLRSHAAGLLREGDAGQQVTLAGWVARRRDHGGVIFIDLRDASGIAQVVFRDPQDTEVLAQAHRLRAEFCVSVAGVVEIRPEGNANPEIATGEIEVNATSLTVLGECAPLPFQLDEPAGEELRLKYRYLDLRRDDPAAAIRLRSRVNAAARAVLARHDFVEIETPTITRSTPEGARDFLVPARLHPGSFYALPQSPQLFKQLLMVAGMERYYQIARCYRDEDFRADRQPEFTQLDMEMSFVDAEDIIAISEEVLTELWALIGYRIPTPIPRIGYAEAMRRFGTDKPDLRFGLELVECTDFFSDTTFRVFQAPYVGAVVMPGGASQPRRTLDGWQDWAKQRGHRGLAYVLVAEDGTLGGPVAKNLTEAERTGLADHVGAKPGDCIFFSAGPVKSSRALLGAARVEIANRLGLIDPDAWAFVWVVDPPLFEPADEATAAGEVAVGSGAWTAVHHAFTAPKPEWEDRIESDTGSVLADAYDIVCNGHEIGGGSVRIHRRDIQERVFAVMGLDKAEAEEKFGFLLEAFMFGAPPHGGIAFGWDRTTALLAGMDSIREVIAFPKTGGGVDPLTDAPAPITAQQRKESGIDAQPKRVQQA
# test: Assay for Asp RNA synthetase-1 from Mycobacterium tuberculosis
# Assay type: functional
# Design: scale not given: direction of the effect not stated beside the values
# experimental_parameters: 30 µM
Listing of entries alongside the reported Percent Effect.

compound | Percent Effect (%)
COc1ccc(CS(=O)(=O)CC(=O)NCc2ccccc2F)cc1F | 5.03
O=C(NCCCO)Nc1cccc(Cl)c1F | 1.48
CS(=O)(=O)c1ccc(CNCC2CCN(CCO)CC2)cc1 | 9.49
O=C(NC[C@@H]1CCCN1)c1cc(COc2cccc(C(F)(F)F)c2)[nH]n1 | 1.98
Cc1ccc(S(=O)(=O)N2C[C@H]3C[C@H](NC(=O)c4ccn(C)n4)[C@H]3C2)cc1 | 1.35
C1CCCN(c2nc(C3CC3)ns2)CC1 | -2.7
Cc1cccc(-c2noc(CN3CCc4nn(C)c(=O)cc4C3)n2)c1 | 47.9
CNc1cc2c(nn1)CCN(C(=O)c1cccc3c1OCO3)C2 | -7.31
c1csc(-c2nc(CNC3CCc4ncnn4C3)cs2)c1 (centres undefined) | -3.43
Cn1ccnc1CN1CC[C@@H](NS(C)(=O)=O)[C@@H]1Cc1cccnc1 | -0.168
Cc1c(NC(=O)NCC(C)N2CCOCC2)cccc1OC(F)F (centres undefined) | -1.79
CC(C)NC(=O)N1CCC2(CC(C(=O)NCc3cccnc3)=NO2)C1 (centres undefined) | 2.53
Cc1cc(C2CCCN2CCCS(=O)(=O)c2ccccc2)no1 (centres undefined) | -1.06
Cc1cnn(C2CCCN(C(=O)c3cc(C)sc3C)C2)c1 (centres undefined) | -4.82
CCOC(=O)c1sc(NC(=O)CN(C)S(C)(=O)=O)c(C#N)c1C | -4.94
O=C(NCc1cccnc1)C1=NN(c2ccccc2)C(=O)CN1 | 14.8
Cc1nn(C)c(N2CCOCC2)c1CNC1CCN(C(C)(C)C)CC1 | -0.171
Cc1oc(C)c(C(=O)N2CCCN(Cc3cscn3)CC2)c1C | -1.41
Cc1cccc(C(=O)NC(CN2CCCC2=O)c2ccccc2)n1 (centres undefined) | -1.37
CCn1ccnc1CN1CCCN(C(=O)c2cccn2C)CC1 | -3.17
CC(C)(C)c1noc(CN2CCCN(Cc3cccs3)CC2)n1 | -4.01
CC(C)n1c(C2CCCN(Cc3ccnn3C)C2)nc2ccccc21 (centres undefined) | -2.04
Cc1ccccc1-c1cc(NC(=O)CC(C)C)n(CCO)n1 | -0.569
CCC(O)CN1CCN(C(=O)c2ccnc(N(C)C)c2)CC1 (centres undefined) | -4.29

Reference for the values: ChEMBL document CHEMBL3988442
